The values you see were collected from the supplement of paper PMC11196671.

experiment: MHET released, HPLC; higher = more MHET released; extreme values may be limits of the assay; conditions: PET substrate: cryPow; 60 °C; pH 8.5; 24 h
measured endpoint: MHET released (mM)

{"columns": ["sequence code", "observed value"],
 "data": [
  ["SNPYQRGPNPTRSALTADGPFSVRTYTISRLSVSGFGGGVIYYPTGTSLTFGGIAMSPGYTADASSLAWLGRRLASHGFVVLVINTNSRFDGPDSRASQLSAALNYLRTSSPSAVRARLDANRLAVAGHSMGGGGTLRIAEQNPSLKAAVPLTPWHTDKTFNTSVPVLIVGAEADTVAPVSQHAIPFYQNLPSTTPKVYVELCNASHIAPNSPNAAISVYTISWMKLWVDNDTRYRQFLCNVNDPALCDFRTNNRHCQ [LCC-ICCG RIP]", 0.186],
  ["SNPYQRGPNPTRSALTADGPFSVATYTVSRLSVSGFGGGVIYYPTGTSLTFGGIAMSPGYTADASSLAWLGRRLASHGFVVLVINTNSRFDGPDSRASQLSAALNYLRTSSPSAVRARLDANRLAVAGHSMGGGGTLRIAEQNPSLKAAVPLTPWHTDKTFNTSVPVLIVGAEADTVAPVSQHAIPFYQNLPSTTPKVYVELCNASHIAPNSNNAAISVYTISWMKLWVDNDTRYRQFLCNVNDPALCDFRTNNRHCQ [LCC-ICCG]", 0.198],
  ["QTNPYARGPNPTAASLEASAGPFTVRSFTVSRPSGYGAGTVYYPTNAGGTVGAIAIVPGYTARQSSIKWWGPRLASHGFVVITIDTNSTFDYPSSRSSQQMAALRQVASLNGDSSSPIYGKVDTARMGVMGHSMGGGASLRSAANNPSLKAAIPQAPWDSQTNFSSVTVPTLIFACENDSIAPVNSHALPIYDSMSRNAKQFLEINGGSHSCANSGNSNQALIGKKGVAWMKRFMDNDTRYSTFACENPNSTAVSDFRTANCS [DuraPETase]", 0.169]
]}
